tested on: SNB-75 CNS; assay: NCI-60 one-dose screen, 48 h (100 = growth as untreated, 0 = no growth, -100 = all killed); conditions: 10 µM unless noted
The panel holds about 83,000 compounds, 20% with a hit somewhere; the sample as a whole holds those more often.
The entries below are paired with their reported growth.
Metric name: growth (%)

> print(dat)
                            compound.smiles  units  observed.value
1            O=Cc1[nH]c(Sc2ccccc2)c2ccccc12      %            42.8
2                   CN(CCC#N)C(=O)Nc1ccccc1      %            99.2
3  COc1ccc(/C=C/C(=O)/C=C(/C=C/c2ccc(OC)c(OC)c2)OB(F)F)cc1OC      %            76.8
4  Cc1c(Cl)cccc1NC(=O)c1sc2nc3c(cc2c1N)CCCCCC3      %           -6.81
5  COc1cc(C(=O)Nc2cc(O)c(C/C=C(\C)CCC=C(C)C)c(O)c2)cc2c1O[C@]1(C)CC[C@@H](O)C(C)(C)[C@H]1C2      %            20.2
6  Cn1nc(C(F)(F)F)c(-c2cc(C(F)(F)F)cc(C(F)(F)F)c2)c1-c1ccc(OCc2ccc(Cl)cc2)cc1O      %            4.92

====

// growth lookup, one value per entry
test system: SW-620 colon; assay: NCI-60 one-dose screen, 48 h (100 = growth as untreated, 0 = no growth, -100 = all killed); settings: 10 µM unless noted
About 83,000 compounds went through this panel and 20% of them were active in at least one assay; those are over-represented in the sample as a whole.
Metric name: growth (%)

> print(dat)
                            compound.smiles  metric.name  units  observed.value
1    Nc1c(C(=O)Nc2ccccn2)sc2nc3c(cc12)CCCC3       growth      %            40.2
2          CC(=O)Nc1ccc2c(c1)Cc1cc(F)ccc1-2       growth      %             105
3   COc1ccc(/C(=N\O)c2cc(C)c(OC)c(C)c2)cc1O       growth      %              31
4        CC(/C=C/c1ccccc1)=N/NC(=O)c1ccncc1       growth      %            98.7
5  Nc1cc(N)c(S(=O)(=O)O)cc1N=Nc1cc([N+](=O)[O-])ccc1O       growth      %             108

====

test system: SW-620 colon; assay: NCI-60 one-dose screen, 48 h; settings: 10 µM unless noted
Compounds without any hit were thinned out: in the full panel of roughly 83,000, 20% have a hit. Active and inactive are the calls of the source. The calls were made as follows: active = growth percent below 10; inactive = the rest.
Classes used: T for active, F for inactive

> print(dat)
                                   molecule   target.desc  class.name
1  COc1c(O)cc2oc3cc(O[C@@H]4OC(C)[C@@H](O)[C@H](O)C4O)c(CC=C(C)C)c(O)c3c(=O)c2c1CC=C(C)C (some centres undefined)  SW-620 colon           F
2            O=Cc1[nH]c(Sc2ccccc2)c2ccccc12  SW-620 colon           F
3  O=S(=O)(Nc1nccs1)c1ccc(Nc2nc(-c3ccncc3)cs2)cc1  SW-620 colon           F
4  O=C(CCCCCCCCC(=O)Nc1cccc(C2=NCCN2)c1)Nc1cccc(C2=NCCN2)c1  SW-620 colon           F
5                          Cc1ccc(C(=O)O)o1  SW-620 colon           F
6  COc1cc(F)c(-c2nc3c(C)cccc3n2Cc2c(F)cccc2F)c(F)c1  SW-620 colon           F
7  Cc1ccn2c3c(c(C(=O)O)c2c1)C(=O)c1ccccc1C3=O  SW-620 colon           F
8  COc1cc(C2=NN(c3ccccc3)C(c3cccc(Nc4ccnc5cc(C(F)(F)F)ccc45)c3)C2)cc(OC)c1OC (centres undefined)  SW-620 colon           F
9  COC(=O)c1nc(-c2ccccc2)oc1S(=O)(=O)n1nc(C)cc1N  SW-620 colon           T
